Source: patent US20240051985A1

Reported pIC50 values for the following molecules.
MEASUREMENT TARGET: PRMT5-MEP50 (Homo sapiens)
Sequence (O14744 whole entry): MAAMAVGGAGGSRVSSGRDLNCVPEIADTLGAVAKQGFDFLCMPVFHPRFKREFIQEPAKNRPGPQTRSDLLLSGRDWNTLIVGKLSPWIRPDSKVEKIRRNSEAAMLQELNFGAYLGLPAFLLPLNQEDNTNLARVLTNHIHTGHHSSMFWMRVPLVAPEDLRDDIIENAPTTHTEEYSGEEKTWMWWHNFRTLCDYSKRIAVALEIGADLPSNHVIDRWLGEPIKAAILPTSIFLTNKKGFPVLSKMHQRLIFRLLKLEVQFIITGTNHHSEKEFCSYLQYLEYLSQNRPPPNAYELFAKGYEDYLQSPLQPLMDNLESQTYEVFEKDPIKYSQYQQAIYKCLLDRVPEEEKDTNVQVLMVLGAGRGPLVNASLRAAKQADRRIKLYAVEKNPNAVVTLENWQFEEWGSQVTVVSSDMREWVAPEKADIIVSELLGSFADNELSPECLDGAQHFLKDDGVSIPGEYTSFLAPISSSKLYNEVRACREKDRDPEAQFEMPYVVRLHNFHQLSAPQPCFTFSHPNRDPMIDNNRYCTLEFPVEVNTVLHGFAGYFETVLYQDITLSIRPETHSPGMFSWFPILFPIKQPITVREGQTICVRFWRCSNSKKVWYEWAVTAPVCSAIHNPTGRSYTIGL
Sequence (Q9BQA1 whole entry partner): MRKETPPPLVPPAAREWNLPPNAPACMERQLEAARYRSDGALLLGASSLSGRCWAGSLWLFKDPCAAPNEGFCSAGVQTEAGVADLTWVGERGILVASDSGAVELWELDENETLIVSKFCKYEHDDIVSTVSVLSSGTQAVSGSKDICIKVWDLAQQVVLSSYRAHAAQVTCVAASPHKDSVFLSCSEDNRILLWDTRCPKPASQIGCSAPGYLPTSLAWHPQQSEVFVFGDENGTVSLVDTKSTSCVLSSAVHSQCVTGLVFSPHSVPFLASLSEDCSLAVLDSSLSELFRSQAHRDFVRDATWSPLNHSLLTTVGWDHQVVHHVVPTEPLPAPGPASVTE
MEASUREMENT DESCRIPTION: PRMT5 assay (3H-SAM flashplate)
MEASUREMENT CONTEXT: Table 4; PRMT5 biochemical assay
pIC50: −log10 of the molar value.

Answered cases to consult:
C[C@H]1C[C@H](NC(=O)[C@H]2O[C@@H](n3cc(-c4ccn(C)n4)c4c(N)ncnc43)[C@H](O)[C@@H]2O)CCN1C | 6.00 to 7.00
Cn1ccc(-c2cn([C@@H]3O[C@H](C(=O)N[C@H]4CCCNC4)[C@@H](O)[C@H]3O)c3ncnc(N)c23)n1 | 7.00 to 8.00
Cn1ccc(-c2cn([C@@H]3O[C@H](C(=O)NC4CCS(=O)(=O)C4)[C@@H](O)[C@H]3O)c3ncnc(N)c23)n1 (stereo partly drawn) | ≤ 6.00
Cn1ccc(-c2cn([C@@H]3O[C@H](C(=O)NC4CCc5nc(N)sc5C4)[C@@H](O)[C@H]3O)c3ncnc(N)c23)n1 (stereo in doubt) | 6.00 to 7.00
CN1CC[C@@H](NC(=O)[C@H]2O[C@@H](n3cc(-c4ccn(C)n4)c4c(N)ncnc43)[C@H](O)[C@@H]2O)C1 | 7.00 to 8.00

Let's switch to this molecule now.
Name the recorded pIC50 for Cn1ccc(-c2cn([C@@H]3O[C@H](C(=O)N4CCNC(=O)C4)[C@@H](O)[C@H]3O)c3ncnc(N)c23)n1 .
≤ 6.00
